TARGET OR TEST SYSTEM: Sho1, P40073
Sequence (P40073 287-367): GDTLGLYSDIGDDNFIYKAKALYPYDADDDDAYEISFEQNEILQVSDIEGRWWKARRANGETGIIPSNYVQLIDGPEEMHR
PROTOCOL TEXT: SPOT array
CONDITIONS USED: median of control spots 1148
In this scheme, each record receives a class according to its SPOT intensity; the ranges are zone 1 = under 9, zone 2 = from 9 up to 60, zone 3 = 60 and over

// below: answered binders
HGKRRAPLLLAKLDV : zone 3
PSPSSSPPPIPKTAN : zone 1
NILKRRPLKLEAPSK : zone 3
PPPPPPPPPPLPQSL : zone 1
VPVAPPPPPASLGQS : zone 1
NFLRLLIGLPSQNEL : zone 3
NNQRRKPLLLNIGDH : zone 3
RRRIAYPFYPFKKLG : zone 2
GERSRPLVISILSSA : zone 2
ISPPASPPPEFDFSK : zone 1

*Q* Kindly identify the class of KKEKKPPKIPKKVYT .
*A* zone 2

*Q* Kindly identify the class of PPIPIVPSSPAPPLP .
*A* zone 1

*Q* Kindly identify the class of NLPKRKPPKLQGPFS .
*A* zone 3

*Q* Kindly identify the class of LEFRAILFIPKRAPF .
*A* zone 3

*Q* Kindly identify the class of VFQFQMPTTPISTKM .
*A* zone 2

*Q* Kindly identify the class of FVLRYYILIPHEQWD .
*A* zone 1

*Q* Kindly identify the class of QRIRKIPGIPLMSVG .
*A* zone 2

*Q* Kindly identify the class of HHKRRPTTIDVPGLT .
*A* zone 3

*Q* Kindly identify the class of PLRRTVMSLPGNHDI .
*A* zone 2
